# Test system: SK-OV-3 ovarian
# assay explanation: NCI-60 one-dose screen, 48 h (100 = growth as untreated, 0 = no growth, -100 = all killed)
# assay conditions: 10 µM unless noted
This is part of a sample that, as a whole, favours compounds with a hit. Of some 83,000 tested, about 20% had one in any assay.
readout type: growth (%)
Respond numerically; units are % and should not be typed.

Completed entries (count: 4):
In [3]: df
Out[3]:
                                   molecule    tested_target  reported_value
0   NS(=O)(=O)c1ccc(-n2cc(CN3CCNCC3)nn2)cc1  SK-OV-3 ovarian             110
1  CC(C)(C)CC(C)(C)n1nnnc1C(Nc1nccs1)c1cc2cccc3ccc4cccc1c4c32 (centres undefined)  SK-OV-3 ovarian             103
2  O=S(=O)(NCCCNc1nccc(-c2[nH]c(-c3ccccc3)nc2-c2ccc(Cl)c(O)c2)n1)c1ccc(Br)cc1  SK-OV-3 ovarian            68.4
3            C#Cc1nc(/C=C/C(=O)c2nccn2C)cs1  SK-OV-3 ovarian           -59.7

Find the measured growth: item COc1cc(-c2ccc3ncnc(NCc4ccccc4)c3c2)cnc1OC , target or system SK-OV-3 ovarian.
43.2

Notebook: pull reported growth for SK-OV-3 ovarian, entry O=C(O)c1ccc(-n2cc(CNc3cccc(Cl)c3)c(-c3ccc(F)cc3)n2)cc1
106

Please state recorded growth (tested on SK-OV-3 ovarian) of C=C1CC[C@@H]2[C@](C)(CO)[C@H](O)CC[C@@]2(C)[C@@H]1C/C(O)=C1\CCOC1=O
113
